Origin of the recorded values: PubChem BioAssay AID488890

experiment: growth inhibition of non-replicating M. tuberculosis (AID 488890);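 note: plate controls were DMSO cells for no effect and high antibiotic wells for full effect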
particulars: Mycobacterium tuberculosis non-replicating, at 25 µM, stronger effect = higher value
About 1,300 (0.41%) of roughly 320,000 compounds were called active. About 3% were inconclusive and are not listed. The list is a sample of the results. Potency and affinity values are given separately.
# maps each entry to its inhibition
// return numeric value only (unit: %, not printed)

Here are 2 molecules together with their reported answers.
N#Cc1ccc(OCC(=O)Nc2nc(-c3ccncc3)cs2)cc1	10
CCn1nnc(NC(=O)c2ccc(-c3ccccc3[N+](=O)[O-])o2)n1	9.81

Q) I have this molecule here, CC(C)N(CCNC(=O)c1ccc(CS(=O)(=O)c2c(Cl)cccc2Cl)o1)Cc1ccccc1 , and I need its recorded inhibition.
A) 15.8

Q) Param item: CCCn1c(=O)c2ccccc2n2c(SCc3nnc(-c4ccccc4Br)o3)nnc12
A) -5.68

Q) Param item: CCCS(=O)(=O)c1nc(S(=O)(=O)c2ccc(Cl)cc2)c(N2CCC(O)CC2)s1
A) 9.91

Q) Param item: C/C(CC(=O)N1CCCC1)=N\NC(=O)c1cc2ccccc2cc1O
A) 7.43

Q) Param item: C/C(=N\NC(=O)c1c[nH]c2ccccc12)c1ccc(C)o1
A) 33.3

---

experiment: growth inhibition of non-replicating M. tuberculosis (AID 488890)
particulars: Mycobacterium tuberculosis non-replicating, at 25 µM, stronger effect = higher value
Screen size: about 320,000 compounds; about 1,300 (0.41%) were called active. Inconclusive results (about 3%) are left out. Not all results are given here. Results with a measured potency or affinity are listed apart.
quantityKind: inhibition (%)
// return numeric value only (unit: %, not printed)

Here are 5 compounds together with their reported answers.
O=C1CC(/C=C/c2ccc([N+](=O)[O-])cc2)=Nc2ccccc2N1	30.3
CC(Cc1cccs1)NC(=O)Nc1cccc(Cl)c1 (stereo unspecified)	48.3
O=C(Nc1ccc(S(=O)(=O)Nc2ncccn2)cc1)C1=NN(c2ccccc2)C(=O)CC1	36.2
Cc1nn(C2CCS(=O)(=O)C2)c(Cl)c1/C=C/C(=O)OCC(=O)Nc1ccc2c(c1)OCO2 (stereo unspecified)	3.18
Cc1nnc(NC(=O)CCS(=O)(=O)Cc2ccccc2)s1	57.7

Now let's try a different one.
Q) I have this compound here, O=C(C1=C(O)C(=O)N(CCCn2ccnc2)C1c1ccc(F)cc1)c1ccco1 (stereo unspecified) , and I need its recorded inhibition.
A) 1.68

---

experiment: growth inhibition of non-replicating M. tuberculosis (AID 488890)
particulars: Mycobacterium tuberculosis non-replicating, at 25 µM, stronger effect = higher value
In all, about 320,000 compounds went through this assay and about 1,300 (0.41%) were called active. Roughly 3% stayed inconclusive and do not appear here. These entries were drawn from the full list. Measured potencies and affinities stand elsewhere.
# if value of inhibition reaches 10%, tag y; if it stays below, tag n

Example entries begin here.
Cc1ccc(O)c(CNc2nccs2)c1	n
Cc1ccc(N2C(=O)c3cccc4c([N+](=O)[O-])ccc(c34)C2=O)c2cccnc12	n
CC1CC(=O)Nc2ccccc2N1C(=O)CN1CCN(C=O)CC1 (centres undefined)	n
COCCCNC(=O)c1ccc2c(c1)ncn2-c1ccc(C)cc1C	n
O=C(Nc1cccc(Br)c1)c1ccc(OC2CSC2)cc1	y
COc1ccc(CN(C(=O)c2ccco2)C2CCS(=O)(=O)C2)cc1 (centres undefined)	n

Q) Item CC(=O)N1CCCc2cc(S(=O)(=O)NCCC3=CCCCC3)ccc21 with inhibition of 10% or above?
A) y

Q) Param item: O=C(N/N=C/c1c[nH]c2ccccc12)C1CC(=O)N(c2ccccc2)C1 (centres undefined)
A) y

Q) Param item: O=C(COC(=O)c1cc(Br)ccc1O)Nc1ccc2c(c1)OCCO2
A) y

Q) Param item: CC(=O)c1ccc(NC(=O)CCC(=O)OCC(F)(F)C(F)F)cc1
A) n

Q) Param item: COc1ccc(Nc2oc(COc3cccc(C)c3)nc2C#N)cc1
A) y

Q) Param item: Cc1ccccc1Nc1c([N+](=O)[O-])cncc1[N+](=O)[O-]
A) y

Q) Param item: CC1(C)CC(=O)c2cc(C(=O)Nn3cnnc3)c(=O)n(-c3ccccc3)c2C1
A) n

Q) Param item: Cc1occc1C(=O)NC1CCCc2ccccc21 (centres undefined)
A) n

---

experiment: growth inhibition of non-replicating M. tuberculosis (AID 488890)
particulars: Mycobacterium tuberculosis non-replicating, at 25 µM, stronger effect = higher value
Out of some 320,000 compounds screened, about 1,300 (0.41%) were called active. Inconclusive results (about 3%) are left out. These entries were drawn from the full list. Entries with a potency or affinity are not part of this list.
quantityKind: inhibition (%)
// return numeric value only (unit: %, not printed)

Here are 4 compounds together with their reported answers.
COc1ccc(Cl)cc1NC(=O)CN(C)C(=O)C12CC3CC(CC(Cl)(C3)C1)C2	41.4
COC(=O)C1CCN(S(=O)(=O)c2c(C)n(C)c(=O)n(C)c2=O)CC1	-0.96
CC1CCN(CCCOc2ccc(Br)cc2Cl)CC1	33.5
O=C(NN=C1CCCC1)c1ccccc1O	8.13

Q) I have this compound here, CC(C)(C)C(=O)NC(=S)NNC(=O)c1ccncc1 , and I need its recorded inhibition.
A) 71.7

Q) Param item: O=c1c(C(c2ccc(Cl)cc2)c2c(O)nc3n(c2=O)CCCS3)c(O)nc2n1CCCS2
A) 8.19

Q) Param item: Cc1nc(C)c(C(=O)Nc2ccccc2)s1
A) -13.4

Q) Param item: O=C(/C=C/Nc1ccc(Oc2ccccc2Cl)cc1)c1ccco1
A) 61.8

Q) Param item: CCOc1ccccc1C(=O)NC1CC2CCCC(C1)N2C1CC1 (stereo not given)
A) 0.26

---

experiment: growth inhibition of non-replicating M. tuberculosis (AID 488890);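 note: plate controls were DMSO cells for no effect and high antibiotic wells for full effect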
particulars: Mycobacterium tuberculosis non-replicating, at 25 µM, stronger effect = higher value
Out of some 320,000 compounds screened, about 1,300 (0.41%) were called active. Inconclusive results (about 3%) are left out. Only a sample is shown. Measured potencies and affinities stand elsewhere.
# if value of inhibition reaches 20%, tag met; if it stays below, tag not met

Example entries begin here.
O=C(CCC1CCCC1)Nc1ccc([N+](=O)[O-])cn1	met
Cc1ccc(NC(=O)CCC(=O)c2cccs2)cc1	not met
Cc1ccc(S(=O)(=O)Nc2cccc3ncccc23)cc1	not met
CCOC(=O)CNC(=O)CSc1nnc(C)c(=O)[nH]1	not met
CCOC(=O)Cn1cc(/C=C/[N+](=O)[O-])c2ccccc21	met

Q) Item COc1ccc(NC(=O)CCC(=O)c2cccs2)cc1Cl with inhibition of 20% or above?
A) not met

Q) Param item: COc1cc(OC)cc(C(=O)N[C@H](C(=O)OCC(N)=O)C(C)C)c1
A) not met

Q) Param item: Cc1cccn2c(CNC3CCCc4ccccc43)c(C(=O)N3CCOCC3)nc12 (stereo not drawn)
A) met

Q) Param item: COc1ccccc1C(=O)COC(=O)c1ccccc1O
A) met

Q) Param item: O=C(CCC1CCCCC1)NCc1ccncc1
A) met

Q) Param item: c1ccc(CN2CCN(c3cnc4ccccc4n3)CC2)cc1
A) not met

---

experiment: growth inhibition of non-replicating M. tuberculosis (AID 488890);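 note: plate controls were DMSO cells for no effect and high antibiotic wells for full effect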
particulars: Mycobacterium tuberculosis non-replicating, at 25 µM, stronger effect = higher value
About 1,300 (0.41%) of roughly 320,000 compounds were called active. Roughly 3% stayed inconclusive and do not appear here. Not all results are given here. Potency and affinity values are given separately.
Recorded inhibition split into classes low (below 10%), middle (10% to below 20%), high (20% or more)

CCN(C(=O)c1c(-c2ccccc2)noc1C)c1ccccc1	low
NS(=O)(=O)c1ccc(NC(=O)COC(=O)COc2ccc3ccccc3c2)cc1	high
CC(/C=C/c1ccco1)=N\NC(=O)c1cccnc1	middle
O=C(CCc1nc2ccccc2c(=O)[nH]1)NCCN1C(=O)S/C(=C\c2ccccc2Cl)C1=O	low
Cc1ccc(N/C=C/C(=O)c2ccco2)c(O)c1	middle

Q) Exercise: read the entry C/C(=C\c1ccccc1)C(=O)N1CCN(c2cccc(C(F)(F)F)c2)CC1 and state which class it falls under.
A) high

Q) Param item: Clc1ccccc1N/N=C/c1ccc2c(c1)OCO2
A) high

Q) Param item: CCCN(CC(=O)Nc1ccc(F)c(F)c1F)CC(=O)Nc1c(C)n(C)n(-c2ccccc2)c1=O
A) high

Q) Param item: CCOC(=O)c1c(C)[nH]c(C(=O)COC(=O)Cn2cc(C(F)(F)F)ccc2=O)c1C
A) low

Q) Param item: COc1ccc2cc(Br)ccc2c1CC(=O)NCC1CCCO1 (configuration not stated)
A) middle

Q) Param item: Cc1cccc(OCC(=O)OC(C)C(=O)Nc2ccc(S(=O)(=O)N3CCCCC3)cc2)c1 (configuration not stated)
A) middle

Q) Param item: Cc1cc(C(=O)N/N=C/c2cccc([N+](=O)[O-])c2O)n[nH]1
A) middle

---

experiment: growth inhibition of non-replicating M. tuberculosis (AID 488890);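 note: plate controls were DMSO cells for no effect and high antibiotic wells for full effect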
particulars: Mycobacterium tuberculosis non-replicating, at 25 µM, stronger effect = higher value
About 1,300 (0.41%) of roughly 320,000 compounds were called active. About 3% were inconclusive and are not listed. A selection follows. Entries with a potency or affinity are not part of this list.
quantityKind: inhibition (%)
// return numeric value only (unit: %, not printed)

Here are 4 compounds together with their reported answers.
COc1cc(/C=N\Nc2nncn2N)ccc1OC(C)=O	8.91
Cc1ccc([N+](=O)[O-])cc1N=Nc1c(C)[nH]n(C(N)=S)c1=O	-4.79
CCCOc1cccc(C(=O)NCCNC(=O)c2ccco2)c1	-5.82
O=C(COc1cccc2c1CCN(Cc1ccccc1)C2=O)N1CCCCC1	10.8

Q) I have this compound here, COc1cc(OC)cc(C(=O)NNC(=O)C2CCCC2)c1 , and I need its recorded inhibition.
A) -10.6
